- System: Yap1 mRNA
- TEST METHOD NOTES: Dose-dependent inhibition of human Yap1 in A-431 cells (Example 6, 5,000 cells per well, RTS4814)
- Type: cell-based
- ASSAY SETUP: Table 54; A-431 cells, free uptake, 4000 nM, approximately 48 hours, RTS4814
Strand notation (5' to 3'): a small letter for the sugar, then the base; units joined by * are phosphorothioate-linked, units joined directly phosphodiester-linked; [ ] holds rarer units or linkages, { } end groups; capitals alone tell only the bases. k = constrained ethyl (cEt); [5mC] = 5-methylcytosine; d = 2'-deoxy (DNA)
RECORDED METRIC: % UTC 4000 nM (% UTC)
Field: numeric (% UTC). Do not append units.

Reading of % UTC 4000 nM for 716445 (antisense kG*kT*kA*dT*dG*dT*dG*dG*d[5mC]*dA*dA*dT*dA*kA*kT*kT) [compound 716445] with Yap1 mRNA: 44

Reading of % UTC 4000 nM for 716502 (antisense k[5mC]*kA*k[5mC]*dA*dG*dT*dG*dA*dT*dT*dG*d[5mC]*dA*kT*kT*kT) [compound 716502] with Yap1 mRNA: 30

Reading of % UTC 4000 nM for 716370 (k[5mC]*kA*kG*dT*dG*d[5mC]*d[5mC]*dT*dG*d[5mC]*dA*dT*d[5mC]*kA*kG*kT; antisense) [compound 716370] with Yap1 mRNA: 49

Reading of % UTC 4000 nM for 716424 (antisense kG*k[5mC]*kA*dA*dT*dG*dG*dA*d[5mC]*dA*dA*dG*dG*kA*kA*kG) [compound 716424] with Yap1 mRNA: 44

Reading of % UTC 4000 nM for 716481 (antisense kT*k[5mC]*kA*dG*d[5mC]*dA*dT*dA*dG*dA*dA*dG*dT*kA*kG*kG) [compound 716481] with Yap1 mRNA: 32

Reading of % UTC 4000 nM for 716454 (antisense k[5mC]*kG*kA*dG*dA*dT*dT*dT*dA*dA*dA*dT*dA*kA*kG*kG) [compound 716454] with Yap1 mRNA: 48

Reading of % UTC 4000 nM for 715478 (kA*k[5mC]*k[5mC]*dA*dT*dT*dA*dT*dT*dA*d[5mC]*dT*d[5mC]*k[5mC]*kT*kG; antisense) [compound 715478] with Yap1 mRNA: 18

Reading of % UTC 4000 nM for 716484 (antisense k[5mC]*kA*k[5mC]*dT*dT*dT*dT*d[5mC]*d[5mC]*dA*dG*d[5mC]*dT*kA*kA*k[5mC]) [compound 716484] with Yap1 mRNA: 55

Reading of % UTC 4000 nM for 716505 (antisense kG*kA*kT*dT*dT*dA*dA*dT*d[5mC]*dT*dT*dT*d[5mC]*kT*kG*k[5mC]) [compound 716505] with Yap1 mRNA: 66

Reading of % UTC 4000 nM for 716376 (k[5mC]*kG*kA*dA*dG*dA*dT*dG*d[5mC]*dT*dG*dA*dG*k[5mC]*kT*kG; antisense) [compound 716376] with Yap1 mRNA: 50

Reading of % UTC 4000 nM for 716493 (antisense kA*k[5mC]*kA*dT*dT*dG*dA*dA*dA*dG*dA*d[5mC]*d[5mC]*k[5mC]*kT*kT) [compound 716493] with Yap1 mRNA: 72

Reading of % UTC 4000 nM for 715471 (kT*kA*kT*d[5mC]*dT*dA*dG*d[5mC]*dT*dT*dG*dG*dT*kG*kG*k[5mC]; antisense) [compound 715471] with Yap1 mRNA: 79

Reading of % UTC 4000 nM for 715558 (k[5mC]*kA*kG*dG*dA*dA*dG*dT*dT*dA*dT*dT*d[5mC]*kA*kG*k[5mC]; antisense) [compound 715558] with Yap1 mRNA: 66

Reading of % UTC 4000 nM for 716496 (antisense kG*kA*kA*dG*dA*dG*dA*dT*dT*dT*dT*dA*dT*kG*k[5mC]*k[5mC]) [compound 716496] with Yap1 mRNA: 49

Reading of % UTC 4000 nM for 715582 (kG*kT*k[5mC]*dA*dA*dG*d[5mC]*d[5mC]*dT*dG*dT*d[5mC]*dT*kG*kG*kA; antisense) [compound 715582] with Yap1 mRNA: 70

Reading of % UTC 4000 nM for 716577 (antisense kT*k[5mC]*kT*dG*dT*d[5mC]*dA*dG*dT*dT*dA*dT*d[5mC]*k[5mC]*kT*kA) [compound 716577] with Yap1 mRNA: 60

This collection of values is drawn from patent US11214803B2.
